System: HT29
Experiment: MTT assay, HT29 colorectal cancer cells
Type: cell-based, human
Conditions: read-out: anticancer activity (IC50) HT29; MTT assay, colorectal cancer cells, 96 h incubation
readout_kind: IC50 (µM)
Supply the numeric figure in µM, leaving out any unit text.

Asked: In one line, give reported IC50 of the entry N.N.[Cl][Pt][Cl] [DDP, Cisplatin, reference compound] .
Given back: 14.3

---

Each entry below carries its recorded pIC50.
Test system: HepG2
Assay: MTT assay, HepG2 liver carcinoma cells
Type: cell-based, human
Conditions: Homo sapiens, HepG2, 96 h, read-out: anticancer activity (IC50) HepG2, MTT assay, liver carcinoma cells, 96 h incubation
# reply with the number alone; pIC50 is -log10 of concentration in mol/L

Asked: In one line, give reported pIC50 of the entry COc1ccc(C(=O)C2=C3NCCCCN3C3Oc4ccc(Cl)cc4C(=O)C3=C2)cc1 (stereo not drawn) [3fd] .
Given back: 4.95

Asked: In one line, give reported pIC50 of the entry COc1ccc(C(=O)C2=C3NCCCCN3C3Oc4ccc(F)cc4C(=O)C3=C2)cc1 (stereo not drawn) [3fc] .
Given back: 4.72

Asked: In one line, give reported pIC50 of the entry COc1ccc(C(=O)C2=C3NCCCN3C3Oc4ccc(Cl)cc4C(=O)C3=C2)cc1 (stereo not drawn) [3ad] .
Given back: 4.51

Continue with the compound presented below.
Asked: In one line, give reported pIC50 of the entry COc1ccc(C(=O)C2=C3NCCCN3C3Oc4ccc(Br)cc4C(=O)C3=C2)cc1 (stereo not drawn) [3ae] .
Given back: 4.81

---

Test: Fluorescence spectra and quantum yield
Format: physicochemical
Conditions: ethanol as the solvent
readout_kind: ε × Φ, fluorescent brightness (mL mg^–1 cm^–1)
Supply the numeric figure in mL mg^–1 cm^–1, leaving out any unit text.

Below, each entry is followed by its recorded ε × Φ, fluorescent brightness result.
Asked: In one line, give reported ε × Φ, fluorescent brightness of the entry COc1ccc(C(=O)C2=C3NCCCN3C3Oc4ccc(Br)cc4C(=O)C3=C2)cc1 (centres unmarked) .
Given back: 10.08

Asked: In one line, give reported ε × Φ, fluorescent brightness of the entry COc1ccc(C(=O)C2=C3NCCCCN3C3Oc4ccc(Br)cc4C(=O)C3=C2)cc1 (centres unmarked) .
Given back: 37.33

Asked: In one line, give reported ε × Φ, fluorescent brightness of the entry COc1ccc(C(=O)C2=C3NCCCCN3C3Oc4ccc(F)cc4C(=O)C3=C2)cc1 (centres unmarked) .
Given back: 74.72

Asked: In one line, give reported ε × Φ, fluorescent brightness of the entry COc1ccc(C(=O)C2=C3NCCCCN3C3Oc4ccc(Cl)cc4C(=O)C3=C2)cc1 (centres unmarked) .
Given back: 53.75

Continue with the compound presented below.
Asked: In one line, give reported ε × Φ, fluorescent brightness of the entry COc1ccc(C(=O)C2=C3NCCCN3C3Oc4ccc(Cl)cc4C(=O)C3=C2)cc1 (centres unmarked) .
Given back: 23.23

---

System: MRC-5
Experiment: MTT assay, MRC-5 diploid fibroblasts
Format: cell-based, human
Settings: read-out: anticancer activity (IC50) MRC-5; MTT assay, diploid fibroblasts (normal cells), 96 h incubation
readout_kind: IC50 (µM)
Supply the numeric figure in µM, leaving out any unit text.

Asked: Please tell me the measured IC50 for N.N.[Cl][Pt][Cl] [DDP, Cisplatin, reference compound] ; system: MRC-5.
Given back: 8.2

Reference source: paper PMC6044579
